Tested on: Mycolicibacterium aurum
Experiment: Antimycobacterial activity against Mycobacterium aurum at 37 degC using Mueller-Hinton broth by resazurine microtiter assay
Assay type: functional
readout-label: MIC (µM)

Which value of MIC has been reported for CC(C)n1cc(NC(=O)c2ccc(/C=C/c3cnc4ccccc4c3)cc2)cc1C(=O)Nc1cc(C(=O)NCCN2CCOCC2)n(C)c1 in the records?
2

(1) COc1ccc(/C=C/c2ccc(C(=O)Nc3cc(C(=O)Nc4cc(C(=O)NCCN5CCOCC5)n(C(C)C)c4)n(C)c3)nc2)cc1
(2) CCC(C)n1cc(NC(=O)c2ccc(/C=C/c3cnc4ccccc4c3)cc2)cc1C(=O)Nc1cc(C(=O)NCCN2CCOCC2)n(C)c1 (configuration not stated)
(3) CCC(C)n1cc(NC(=O)c2ccc(/C=C/c3ccc(OC)cc3)cn2)cc1C(=O)Nc1cc(C(=O)NCCN2CCOCC2)n(C)c1 (configuration not stated)
(4) CCC(C)n1cc(NC(=O)c2cc(NC(=O)c3ccc(/C=C/c4ccc(OC)cc4)cn3)cn2C)cc1C(=O)NCCN1CCOCC1 (configuration not stated)
Output the entries ranked by MIC from maximum down to minimum. Enter labels, ranked according to the request.
3, 4, 1, 2
(3: 31 µM, 4: 16 µM, 1: 8 µM, 2: 2 µM)

(I) CC(C)n1cc(NC(=O)c2cc(NC(=O)c3ccc(/C=C/c4cnc5ccccc5c4)cc3)cn2C)cc1C(=O)NCCN1CCOCC1
(II) COc1ccc(/C=C/c2ccc(C(=O)Nc3cc(C(=O)Nc4cc(C(=O)NCCN5CCOCC5)n(C)c4)n(C(C)C)c3)nc2)cc1
// max by MIC over [ I , II ] Answer by quoting the chosen item's label.
II
